Assay: Mouse pharmacokinetics after oral gavage, plasma drug concentration by LC-MS/MS (BALB/c)
Type: in vivo
Settings: 10 mg/kg, male mice
Method: Compounds were formulated in 5% DMSO/5% Tween20 in H2O, sonicated, vortexed, and put on stir plate overnight at a dose volume of 10 mL/kg. […] Plasma was collected via centrifugation and analyzed for drug concentrations. […] Prepared samples were usually analyzed in reverse chronological order with bracketing standard curves. Typically at least 6 standards were used for quantification with a percent accuracy of +/−15% for all standards except at the LLOQ where a percent accuracy of +/−20% was allowed. […]
API: label(entry) gives fulfilled if the entry's apparent oral clearance (CL/F) is strictly smaller than 80 mL/min/kg; on equality or larger values it gives not fulfilled.

Example cases with answers are listed next.
Cc1cccc(NC(=O)[C@H](CCN)NC(=O)[C@@H]2Cc3ccccc3CN2C(=O)CCC(=O)c2ccccc2)c1 [Compound 2-5]
not fulfilled
Cc1c(Cl)ccc(NC(=O)[C@H](CCN)NC(=O)[C@@H]2Cc3ccccc3CN2C(=O)CCC(=O)c2ccccc2)c1C [Compound 2-26]
fulfilled
Cc1cc(NC(=O)[C@H](CCN)NC(=O)[C@@H]2Cc3ccccc3CN2C(=O)CCC(=O)c2ccccc2)c(F)cc1Cl [Compound 2-18]
fulfilled
Cc1ccc(NC(=O)[C@H](CCN)NC(=O)[C@@H]2Cc3ccccc3CN2C(=O)CCC(=O)c2ccccc2)cc1C(F)(F)F [Compound 2-7]
not fulfilled
Cc1ccc(NC(=O)[C@H](CCN)NC(=O)[C@@H]2Cc3ccccc3CN2C(=O)CCC(=O)c2ccccc2)cc1C [Compound 2-3]
not fulfilled

Turning to the following molecule.
(Q) Below 80 mL/min/kg on apparent oral clearance (CL/F)? Entry NCC[C@H](NC(=O)[C@@H]1Cc2ccccc2CN1C(=O)CCC(=O)c1ccccc1)C(=O)Nc1ccc(Cl)c(Cl)c1F [Compound 2-24]
(A) fulfilled

###

Target: CXCR3 (Homo sapiens, UniProt P49682)
Construct: host or cells: CHO-K1 (cAMP Hunter CHOK1 CXCR3 Gi cell line)
Sequence (P49682 1-368): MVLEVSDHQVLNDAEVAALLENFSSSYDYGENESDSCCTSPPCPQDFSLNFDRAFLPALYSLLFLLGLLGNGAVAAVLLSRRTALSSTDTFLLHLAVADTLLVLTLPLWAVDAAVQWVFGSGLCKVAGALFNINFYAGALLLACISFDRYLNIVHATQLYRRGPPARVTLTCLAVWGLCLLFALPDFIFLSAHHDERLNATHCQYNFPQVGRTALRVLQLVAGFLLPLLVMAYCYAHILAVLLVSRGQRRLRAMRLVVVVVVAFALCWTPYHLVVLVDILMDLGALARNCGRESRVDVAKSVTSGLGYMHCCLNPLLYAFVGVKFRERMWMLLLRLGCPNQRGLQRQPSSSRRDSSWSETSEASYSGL
Test: CXCR3 cAMP agonist assay (cAMP Hunter CHOK1 CXCR3 Gi cell line, forskolin-stimulated, HitHunter cAMP detection)
Type: cell-based
Settings: cAMP Hunter CHOK1 CXCR3 Gi cells, 20 μM forskolin, 30 minutes; read-out: Activity (CXCR3 cAMP agonist assay compound EC50)
List of EC50 values.

Example entries and their recorded answers appear below.
Cc1cc(NC(=O)[C@H](CNC(=N)N)NC(=O)[C@@H]2Cc3ccccc3CN2C(=O)CCC(=O)c2ccccc2)ccc1Cl
< 50 nM
Cc1cc(NC(=O)[C@H](CCN)NC(=O)[C@@H]2Cc3ccccc3CN2C(=O)CCC(=O)N2CC[C@@H](N(C)C)C2)ccc1Cl
< 50 nM
N#Cc1cc2c(cc1NC(=O)[C@H](CCN)NC(=O)[C@@H]1Cc3ccccc3CN1C(=O)CCC(=O)c1ccccc1)CCC2
< 50 nM

Turning now to a further molecule:
(Q) # input molecule: CC1(C)COCCN1C(=O)CCC(=O)N1Cc2ccccc2C[C@H]1C(=O)NC1(C(=O)Nc2ccc(Cl)c(Cl)c2F)CCNCC1 ; wanted: its EC50
(A) 50 to 250 nM

###

Target: CXCR3 (Homo sapiens, UniProt P49682)
Construct: host or cells: CHO-K1 (cAMP Hunter CHOK1 CXCR3 Gi cell line)
Sequence (P49682 1-368): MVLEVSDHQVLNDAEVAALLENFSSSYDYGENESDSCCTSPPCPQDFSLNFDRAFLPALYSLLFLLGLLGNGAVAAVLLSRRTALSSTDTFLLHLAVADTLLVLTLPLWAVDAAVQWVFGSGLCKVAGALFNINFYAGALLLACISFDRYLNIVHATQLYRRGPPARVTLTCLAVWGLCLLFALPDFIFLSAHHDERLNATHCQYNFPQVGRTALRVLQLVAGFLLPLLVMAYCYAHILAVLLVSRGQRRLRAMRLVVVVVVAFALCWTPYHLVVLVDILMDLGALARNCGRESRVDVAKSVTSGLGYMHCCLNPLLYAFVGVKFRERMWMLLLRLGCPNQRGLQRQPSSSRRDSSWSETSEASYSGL
Experiment: CXCR3 cAMP agonist assay (cAMP Hunter CHOK1 CXCR3 Gi cell line, forskolin-stimulated, HitHunter cAMP detection)
Type: cell-based
Conditions: cAMP Hunter CHOK1 CXCR3 Gi cells, 20 μM forskolin, 30 minutes; read-out: Activity (CXCR3 cAMP agonist assay compound EC50)
pEC50: −log10 of the molar value.
List of pEC50 values.

Cc1cc(NC(=O)[C@H](CCN)NC(=O)[C@@H]2Cc3ccccc3CN2C(=O)CCC(=O)N2CC3(CCOCC3)C2)ccc1Cl
6.30 to 6.60
NCCCC[C@H](NC(=O)[C@@H]1Cc2ccccc2CN1C(=O)CCC(=O)c1ccccc1)C(=O)Nc1ccc(C(F)(F)F)c(Cl)c1
6.30 to 6.60

(Q) Which pEC50 is reported with CXCR3 (Homo sapiens, UniProt P49682) for this entry: Cc1cc(NC(=O)[C@H](CCN)NC(=O)[C@@H]2Cc3ccccc3CN2C(=O)CCC(=O)N2CCCC2C(F)(F)F)ccc1Cl (stereo partly drawn) ?
(A) > 7.30

###

biological target: CXCR3 (Homo sapiens); construct: host or cells: CHO-K1 (cAMP Hunter CHOK1 CXCR3 Gi cell line); test: CXCR3 cAMP agonist assay (cAMP Hunter CHOK1 CXCR3 Gi cell line, forskolin-stimulated, HitHunter cAMP detection); assay type: cell-based; settings: cAMP Hunter CHOK1 CXCR3 Gi cells, 20 μM forskolin, 30 minutes; read-out: Activity (CXCR3 cAMP agonist assay compound EC50)
endpoint: EC50

Cc1cc(NC(=O)[C@H](CCN)NC(=O)[C@@H]2Cc3ccccc3CN2C(=O)CCC(=O)N2CCS(=O)(=O)CC2)ccc1Cl
50 to 250 nM
Cc1cc(NC(=O)[C@H](CCN)NC(=O)[C@@H]2Cc3ccccc3CN2C(=O)CCC(=O)N(C)CCC(C)(C)C)ccc1Cl
< 50 nM
NCCCC[C@H](NC(=O)[C@@H]1Cc2ccccc2CN1C(=O)CCC(=O)c1ccccc1)C(=O)Nc1cccc(C(F)(F)F)c1
50 to 250 nM

Turning now to a further compound:
(Q) # input compound: CC1(C)CCCCN1C(=O)CCC(=O)N1Cc2ccccc2C[C@H]1C(=O)NC1(C(=O)Nc2ccc(Cl)c(Cl)c2F)CCNCC1 ; wanted: its EC50
(A) < 50 nM

###

Target: CXCR3 (Homo sapiens, UniProt P49682)
Construct: host or cells: CHO-K1 (cAMP Hunter CHOK1 CXCR3 Gi cell line)
Sequence (P49682 1-368): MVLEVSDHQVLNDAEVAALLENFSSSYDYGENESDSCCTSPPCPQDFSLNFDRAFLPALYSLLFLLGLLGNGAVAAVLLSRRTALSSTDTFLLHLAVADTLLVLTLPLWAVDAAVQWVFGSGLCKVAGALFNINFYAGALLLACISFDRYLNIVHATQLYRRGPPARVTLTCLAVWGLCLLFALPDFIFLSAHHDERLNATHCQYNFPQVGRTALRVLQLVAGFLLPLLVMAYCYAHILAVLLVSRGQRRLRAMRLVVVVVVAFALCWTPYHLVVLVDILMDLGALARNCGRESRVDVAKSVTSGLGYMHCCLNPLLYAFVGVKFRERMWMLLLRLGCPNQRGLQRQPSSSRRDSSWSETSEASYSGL
Experiment: CXCR3 cAMP agonist assay (cAMP Hunter CHOK1 CXCR3 Gi cell line, forskolin-stimulated, HitHunter cAMP detection)
Assay type: cell-based
Conditions: cAMP Hunter CHOK1 CXCR3 Gi cells, 20 μM forskolin, 30 minutes; read-out: Activity (CXCR3 cAMP agonist assay compound EC50)
List of EC50 values.

Example entries and their recorded answers appear below.
Cc1ccc(NC(=O)[C@H](CCN)NC(=O)[C@@H]2Cc3ccccc3CN2C(=O)CCC(=O)c2ccccc2)cc1C(F)(F)F
< 0.05 µM
CN(C(=O)CCC(=O)N1Cc2ccccc2C[C@H]1C(=O)N[C@@H](CCN)C(=O)Nc1ccc(Cl)c(Cl)c1F)C1CC1
> 0.5 µM

Turning now to a further compound:
(Q) # input compound: NCC[C@H](NC(=O)[C@@H]1Cc2ccccc2CN1C(=O)CCC(=O)N1CCC[C@@H]1c1ccccc1)C(=O)Nc1ccc(Cl)c(Cl)c1F ; wanted: its EC50
(A) 0.25 to 0.5 µM

FYI, the data here is from patent US11040954B1.
